target: T1, cynomolgus monkey CD8 alpha on primary cynomolgus CD8+ T cells (cynomolgus monkey, UniProt P01732 23-235 (human entry)); test: flow cytometry, cyno CD8+ T cells
T1 construct: also called Cyno CD8alpha; cyno CD8A
T1 sequence (P01732 other isoform, or with tags, fused parts or gaps limits assumed): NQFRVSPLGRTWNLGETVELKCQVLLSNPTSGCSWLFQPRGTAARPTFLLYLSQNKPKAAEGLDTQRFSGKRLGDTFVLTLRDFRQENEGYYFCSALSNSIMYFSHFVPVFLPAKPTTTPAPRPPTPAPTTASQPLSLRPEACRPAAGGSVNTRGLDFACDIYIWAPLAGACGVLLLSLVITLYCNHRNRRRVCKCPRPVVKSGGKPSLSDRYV
quantity: Cyno T-cell Binding 2 uM (MFI)

# binder, experimental.value
data = [
    ("P283DR9P1364_B11 (designed binder, FN3 domain) LPAPKNLVVSRVTEDSARLSWTAPDAAFDSFYISYPEWEQLGEAIVLTVPGSERSYDLTGLKPGTEYFVVIYGVKGGALSAPLSAIFTT", "22900 MFI"),
    ("P283FR9P1366_C4 (designed binder, FN3 domain) LPAPKNLVVSRVTEDSARLSWTAPDAAFDSFNIAYPEWPVRGEAIVLTVPGSERSYDLTGLKPGTEYWVIIIGVKGGEDSWPLSAIFTT", "63400 MFI"),
    ("P283FR9P1366_H11 (designed binder, FN3 domain) LPAPKNLVVSRVTEDSARLSWTAPDAAFDSFQIQYLETAPDGEAIVLTVPGSERSYDLTGLKPGTEYYVWIPGVKGGAFSPLSAIFTT", "37400 MFI"),
]
